- test_system: Rac GTPase-activating protein 1 (Homo sapiens)
- test_method_notes: blockers of MgcRacGAP-driven Rac1 GTP hydrolysis – biochemical, ADP Hunter fluorescence, primary and confirmatory, confirmation (AID 624330);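 note: fluorescence reports GDP produced by GAP-driven GTP hydrolysis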
- experimental_setup: MgcRacGAP-stimulated Rac1 GTP hydrolysis, at 30 µM, stronger effect = higher value, GST-tagged Rac1 F28L mutant substrate
The whole screen tested about 340,000 compounds, of which about 2,100 (0.62%) were called active. The list is a sample of the results. Results with a measured potency or affinity are listed apart.

>  <compound>
O=C(O)c1ccccc1Nc1ccc([N+](=O)[O-])c2nonc12

>  <inhibition, %>
5.2

$$$$
>  <compound>
CN1CCCN(C2C3CC4CC(C3)CC2C4)CC1 (configuration not stated)

>  <inhibition, %>
14.8

$$$$
>  <compound>
COc1ccc(C(=O)OCC(=O)Nc2ncc([N+](=O)[O-])s2)cc1OC

>  <inhibition, %>
21.6

$$$$
>  <compound>
CCOC(=O)N1CCN(Cc2ccccc2F)CC1

>  <inhibition, %>
17.8

$$$$
>  <compound>
C=CCOc1ccccc1CN1CCSCC1

>  <inhibition, %>
14.2

$$$$
>  <compound>
CN(Cc1cnccn1)C(=O)C1CCC(=O)N(CCc2ccc(Cl)cc2)C1 (configuration not stated)

>  <inhibition, %>
8.49

$$$$
>  <compound>
CSc1ncnc2c1ncn2CCCN1CCN(Cc2cccc3ccccc23)CC1

>  <inhibition, %>
18.8

$$$$
>  <compound>
COc1cc(/C=C2/C(=N)N3C(=NC2=O)SN=C3S(C)(=O)=O)ccc1OS(=O)(=O)c1ccc(C)cc1

>  <inhibition, %>
11.8

$$$$
>  <compound>
O=C(CCC(=O)c1cccs1)Nc1ncccc1O

>  <inhibition, %>
11.4

$$$$
>  <compound>
O=[N+]([O-])c1ccc(O)c2cccnc12

>  <inhibition, %>
5.34

$$$$
>  <compound>
CS(=O)(=O)N1CCN(Cc2ccccc2C(F)(F)F)CC1

>  <inhibition, %>
8.59

$$$$
>  <compound>
O=S1(=O)CCN(Cc2ccccc2C(F)(F)F)CC1

>  <inhibition, %>
1.13

$$$$
>  <compound>
COc1cc(NC(=S)N2CCCCC2C)cc(OC)c1OC (configuration not stated)

>  <inhibition, %>
12.9

$$$$
>  <compound>
Cc1cc(NCc2ccncc2)ccc1Br

>  <inhibition, %>
22.5

$$$$
>  <compound>
O=C1NC(=O)N(c2ccc(Cl)cc2)C(=O)/C1=C/c1ccc2c(c1)CCN2Cc1ccccc1Cl

>  <inhibition, %>
10.3

$$$$
>  <compound>
O=C1C(=O)c2ccc(-c3ccccc3)cc2-c2ccccc21

>  <inhibition, %>
7.95

$$$$
>  <compound>
CCCN(C(=O)c1c(CC)noc1C)c1c(N)n(Cc2ccccc2)c(=O)[nH]c1=O

>  <inhibition, %>
7.17

$$$$
>  <compound>
O=C1CCC2(CC1)NC(=O)N(c1ccccc1)N2

>  <inhibition, %>
-10.2

$$$$
>  <compound>
COc1ccc(OC)c(NC(=O)COC(=O)CCCN2C(=O)c3ccccc3C2=O)c1

>  <inhibition, %>
3.2

$$$$
>  <compound>
Cc1cc(C)n(C(=O)c2ccc(NC(=O)C3COc4ccccc4O3)cc2)n1 (configuration not stated)

>  <inhibition, %>
-9.3

$$$$
>  <compound>
CS(=O)(=O)N1CCN(C(=O)NC23CC4CC(CC(C4)C2)C3)CC1

>  <inhibition, %>
-2.26

$$$$
>  <compound>
O=C(CSc1nc(Cc2ccccc2)nc2ccccc12)Nc1nc2c(s1)CCCC2

>  <inhibition, %>
18.2

$$$$
>  <compound>
COc1ccc(CC(=O)Oc2cc(C)ccc2C)cc1

>  <inhibition, %>
4.1

$$$$
>  <compound>
N#Cc1ccc(OCC(=O)N2CCN(S(=O)(=O)c3cccc(Cl)c3)CC2)cc1

>  <inhibition, %>
-0.69

$$$$
>  <compound>
O=C1/C(=C/c2ccc(N3CCCC3)cc2)NC(=S)N1C1CC1

>  <inhibition, %>
27.1

$$$$
>  <compound>
Cc1ccc(OC(=O)COc2ccccc2C)cc1

>  <inhibition, %>
9.41

$$$$
>  <compound>
CC(C)c1nccn1CCC(=O)O

>  <inhibition, %>
7.06

$$$$
>  <compound>
CCN(Cc1nc(-c2ccc(C)cc2)no1)C(=O)c1ccco1

>  <inhibition, %>
2.23

$$$$
>  <compound>
CCN(CC)C(=S)Nc1ccc2nc3n(c(=O)c2c1)CCCCC3

>  <inhibition, %>
3.47

$$$$
>  <compound>
Fc1ccccc1CN1CCCCCCC1

>  <inhibition, %>
10.2

$$$$
>  <compound>
C/C=C/c1ccc(OCCN2CCc3ccccc3C2)c(OC)c1

>  <inhibition, %>
17.9

$$$$
>  <compound>
Cc1cccc(OCC(=O)Oc2ccc(Cl)cc2)c1

>  <inhibition, %>
14.7

$$$$
>  <compound>
O=C1C(=C(O)c2ccccc2)C(=O)c2ccccc21

>  <inhibition, %>
8.92

$$$$
>  <compound>
COc1ccc(N(C(=O)COc2cccc(C)c2)S(=O)(=O)c2ccc(C)cc2)cc1

>  <inhibition, %>
7.24

$$$$
>  <compound>
CC(Sc1nc(=O)cc(N)n1CCc1ccccc1)C(=O)NCc1ccccc1 (configuration not stated)

>  <inhibition, %>
3.88

$$$$
>  <compound>
CCN(CC)S(=O)(=O)c1ccc(NN)nc1

>  <inhibition, %>
-5.75

$$$$
>  <compound>
COC(=O)c1ccccc1NC(=O)C/C(C)=N/NC(=O)Cc1ccc(Cl)cc1

>  <inhibition, %>
4.76

$$$$
>  <compound>
COc1cc(/C=C2\C(=N)N3N=C(S(C)(=O)=O)SC3=NC2=O)ccc1OS(=O)(=O)c1ccc(C)cc1

>  <inhibition, %>
23.8

$$$$
>  <compound>
COc1cc2c3c([nH]c2cc1F)C(=O)NCC3

>  <inhibition, %>
9.04

$$$$
>  <compound>
Nc1cc(Cl)ccc1Oc1ccc(Cl)cc1

>  <inhibition, %>
0.58

$$$$
>  <compound>
C=CCOc1ccccc1CN1CCCCCC1

>  <inhibition, %>
13

$$$$
>  <compound>
CC1CCN(Cc2cc(=O)oc3ccc(C(C)C)cc23)CC1

>  <inhibition, %>
5.26

$$$$
>  <compound>
Nc1cc(Cl)ccc1Oc1ccccc1

>  <inhibition, %>
11.6

$$$$
>  <compound>
CSc1ccc(/C=C2\C(=N)N3N=C(CC(=O)N4CCOCC4)SC3=NC2=O)cc1

>  <inhibition, %>
-13.1

$$$$
>  <compound>
COc1cc(/C=C2/C(=N)N3N=C(CC(=O)N4CCOCC4)SC3=NC2=O)ccc1OCc1ccccc1

>  <inhibition, %>
11.5

$$$$
>  <compound>
Cc1ccc(/C=C2/C(=N)N3N=C(CC(=O)N4CCCC4)SC3=NC2=O)cc1

>  <inhibition, %>
1.49

$$$$
>  <compound>
Cc1ccc(OCC(=O)Oc2ccc(C(C)C)cc2)cc1

>  <inhibition, %>
15.2

$$$$
